System tested: T1, cyno FcRn/b2M (cyno, UniProt Q8SPV9 24-297; Q8SPW0 21-119, biotinylated)
T1 construct: bought recombinant biotinylated protein (Immunitrack ITF05 or ACRO FCM-C82W5); also called cFcRn; cFcRn/cb2M
T1 sequence (Q8SPV9 24-297 limits assumed, chain 1 of 2): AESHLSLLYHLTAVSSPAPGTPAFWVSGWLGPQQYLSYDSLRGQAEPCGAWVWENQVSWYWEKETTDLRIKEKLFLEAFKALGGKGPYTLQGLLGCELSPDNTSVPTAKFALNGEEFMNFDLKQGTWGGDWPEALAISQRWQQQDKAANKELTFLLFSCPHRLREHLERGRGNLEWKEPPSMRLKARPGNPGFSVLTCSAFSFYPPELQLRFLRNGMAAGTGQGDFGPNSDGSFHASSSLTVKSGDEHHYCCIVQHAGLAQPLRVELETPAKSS
T1 sequence (Q8SPW0 21-119 limits assumed, chain 2 of 2): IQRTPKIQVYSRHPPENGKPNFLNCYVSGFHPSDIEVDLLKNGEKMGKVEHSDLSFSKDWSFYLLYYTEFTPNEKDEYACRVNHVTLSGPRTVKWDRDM
Test method notes: SPR off-rate; pH 7.4 vs pH 6.0;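 further: surface plasmon resonance with diluted periplasmic extracts flowed over ligand surfaces, 120 s association and 600–3600 s dissociation at 25 °C, running buffer containing 150 mM NaCl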
Parameter measured: kd ratio pH 7.4/6.0
// print number alone

Record T0263018B11 G26H (VHH, name in Kabat numbering, FLAG3-His6 tagged) VHH: EVQLVESGGGVVQPGGSLRLSCAASHFTFSSYAMYWVRQAPGKGLEWVSAISSGGGSTDYADSVKGRFTISRDNSKNTLYLQMNSLRPEDTALYYCAADTLYTSLTWYSYWGQGTLVTVSS . Reported kd ratio pH 7.4/6.0: 159

Record T0263018B11 T57Q (VHH, name in Kabat numbering, FLAG3-His6 tagged) VHH: EVQLVESGGGVVQPGGSLRLSCAASGFTFSSYAMYWVRQAPGKGLEWVSAISSGGGSQDYADSVKGRFTISRDNSKNTLYLQMNSLRPEDTALYYCAADTLYTSLTWYSYWGQGTLVTVSS . Reported kd ratio pH 7.4/6.0: 34

Record T0263018B11 S31A (VHH, name in Kabat numbering, FLAG3-His6 tagged) VHH: EVQLVESGGGVVQPGGSLRLSCAASGFTFSAYAMYWVRQAPGKGLEWVSAISSGGGSTDYADSVKGRFTISRDNSKNTLYLQMNSLRPEDTALYYCAADTLYTSLTWYSYWGQGTLVTVSS . Reported kd ratio pH 7.4/6.0: 61

Record T0263018B11 Y98W (VHH, name in Kabat numbering, FLAG3-His6 tagged) VHH: EVQLVESGGGVVQPGGSLRLSCAASGFTFSSYAMYWVRQAPGKGLEWVSAISSGGGSTDYADSVKGRFTISRDNSKNTLYLQMNSLRPEDTALYYCAADTLWTSLTWYSYWGQGTLVTVSS . Reported kd ratio pH 7.4/6.0: 45
